B1: SMG5 (parent)
chain: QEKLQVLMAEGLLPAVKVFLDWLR

- Variants of: B1
- METHOD SUMMARY: protein stability index of a GFP-peptide fusion (GPS, HEK-293T) (PSI 1-6); higher = more stable;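 note: lentivirally expressed fusions sorted by FACS into six bins by GFP to DsRed ratio, PSI derived from sequencing read proportions per bin multiplied by bin number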
- RUN CONDITIONS: c terminus: a fixed tail appended
Assign yes (1) to entries whose protein stability index meets or exceeds 2; assign no (0) to the rest.

{"columns": ["CHANGES", "ASSIGNED CLASS"],
 "data": [
  ["R24V", "no (0)"]
]}

Is protein stability index for K17H at or above 2?
no (0)

Is protein stability index for E2S at or above 2?
yes (1)

Is protein stability index for E2A at or above 2?
yes (1)

Is protein stability index for V18H at or above 2?
yes (1)

Is protein stability index for E2H at or above 2?
yes (1)

Is protein stability index for K17C at or above 2?
no (0)

Is protein stability index for L13Q at or above 2?
no (0)

Is protein stability index for P14R at or above 2?
no (0)

Is protein stability index for L23S at or above 2?
yes (1)

Is protein stability index for M8V at or above 2?
yes (1)

Is protein stability index for L12T at or above 2?
yes (1)

Is protein stability index for W22P at or above 2?
yes (1)

Is protein stability index for Q1V at or above 2?
yes (1)
